TARGET: Cyclin-dependent kinase 2/cyclin E (Homo sapiens, UniProt P24941)
MEASUREMENT DESCRIPTION: Inhibitory activity against Cyclin E-cyclin-dependent kinase 2 by measuring phosphorylation of RbING substrate
IC50 strictly less than 2 µM = Met. Otherwise Not met.

Some solved cases for reference:
Is IC50 of Cn1cc(C2=C(c3cn(CC(O)CO)c4ccccc34)C(=O)NC2=O)c2ccccc21 (centres undefined) strictly below 2 µM? Met

IC50 under 2 µM? Item: CN(C)CCCn1cc(C2=C(c3c[nH]c4ccccc34)C(=O)NC2=O)c2ccccc21 Not met

# TODO verify IC50 < 2 µM strictly for this molecule: Cn1cc(C2=C(c3cn(C)c4ccccc34)C(=O)NC2=O)c2ccccc21 Met

---
Answer whether the molecule Cn1cc(C2=C(c3c[nH]c4cc(F)ccc34)C(=O)NC2=O)c2ccccc21 has IC50 strictly less than 2 µM Met

Lab note: IC50 threshold 2 µM. Does this molecule come in strictly under it? Cn1cc(C2=C(c3c[nH]c4cc(Br)ccc34)C(=O)NC2=O)c2ccccc21 Met

Determine if O=C1NC(=O)c2c1c1c3ccccc3[nH]c1c1c2c2ccccc2n1CCCO shows IC50 strictly lower than 2 µM. Met

###

Tested on: NCI-H460
MEASUREMENT DESCRIPTION: Flow cytometry proliferation assay in human lung NCI-460 cell line, G1 arrest
Format: functional, cell-based
MEASURED ATTRIBUTE: Cell cycle

Reported Cell cycle of COc1ccc2c(c1)[nH]c1c3[nH]c4cc(OC)ccc4c3c3c(c21)C(=O)NC3=O : G1 arrest

Short answer for Cn1c2ccccc2c2c3c(c4c5ccccc5[nH]c4c21)C(=O)NC3=O : Cell cycle was G1 arrest

Item: Cn1c2ccccc2c2c3c(c4c5ccc(Br)cc5[nH]c4c21)C(=O)NC3=O | Cell cycle: G1 arrest

###

TARGET: Cyclin-dependent kinase 2/cyclin E (Homo sapiens, UniProt P24941)
MEASUREMENT DESCRIPTION: Inhibitory activity against Cyclin E-cyclin-dependent kinase 2 by measuring phosphorylation of RbING substrate
MEASURED ATTRIBUTE: pIC50
Hey, just a heads up that pIC50 is the negative log base 10 of the concentration in molar.

Known pIC50 results, listed for orientation:
Value of pIC50 reported for the compound O=C1NC(=O)C(c2c[nH]c3ccccc23)=C1c1c[nH]c2ccccc12 [RO-316233] is 4.93

The compound identified as Cn1cc(C2=C(c3c[nH]c4ccccc34)C(=O)NC2=O)c2ccccc21 registered its pIC50 at 5.71

More entries:
For this compound ( O=C1NC(=O)c2c1c1c3ccccc3n3c1c1c2c2ccccc2n1C1CCC3O1 ), measured pIC50 is 6.17

Noted for CNCCCn1c2ccccc2c2c3c(c4c5ccccc5[nH]c4c21)C(=O)NC3=O.I : its pIC50 reads 6.80

###

# IC50 per entry
TARGET: cAMP-dependent protein kinase (PKA) (Homo sapiens, UniProt P22694+P17612+P22612)
MEASUREMENT DESCRIPTION: Inhibitory activity against Protein kinase A (PKA)
Assay type: protein assay
Enter your answer as a number in µM; do not include the unit.

Example entries and their recorded answers appear below.
// assay cAMP-dependent protein kinase (PKA) (Homo sapiens, UniProt P22694+P17612+P22612), entry Cn1c2ccccc2c2c3c(c4c5ccccc5n(CC(O)CO)c4c21)C(=O)NC3=O (stereo not drawn) , IC50 value = 0.81

Entry CN(C)CCCn1c2ccccc2c2c3c(c4c5ccccc5[nH]c4c21)C(=O)NC3=O : IC50 on cAMP-dependent protein kinase (PKA) (Homo sapiens, UniProt P22694+P17612+P22612) = 2.2

For the molecule Cn1cc(C2=C(c3c[nH]c4ccccc34)C(=O)NC2=O)c2ccccc21 , the measured IC50 on cAMP-dependent protein kinase (PKA) (Homo sapiens, UniProt P22694+P17612+P22612) was 11.68

Field IC50 (cAMP-dependent protein kinase (PKA) (Homo sapiens, UniProt P22694+P17612+P22612)), entry O=C1NC(=O)C(c2cn(CCCO)c3ccccc23)=C1c1c[nH]c2ccccc12 : 14.65

Others:
Item CNCCCn1cc(C2=C(c3c[nH]c4ccccc34)C(=O)NC2=O)c2ccccc21 was tested on cAMP-dependent protein kinase (PKA) (Homo sapiens, UniProt P22694+P17612+P22612); the reported IC50 is 3.52

Record CNCCCn1c2ccccc2c2c3c(c4c5ccccc5[nH]c4c21)C(=O)NC3=O.I has cAMP-dependent protein kinase (PKA) (Homo sapiens, UniProt P22694+P17612+P22612) IC50 equal to 0.12

src = ChEMBL document CHEMBL1136337
